Origin of values: patent US20100310640A1

target-desc: T1, HLA-DR DRB1*1302 (human)
T1 chain 1: not shown
T1 chain 2: not shown
protocol-text: radioligand competition, purified HLA-DR
condition-set: remark: other sources report otherwise
pIC50: −log10 of the molar value.
Examples of binders with documented pIC50 follow.
result-type: pIC50

binder="TAKLTIESTPFNVAE [CEA.33 (peptide 9019.0106)]" result_type=pIC50 measured_value=7.46
binder="PPSMVAAGSVVAAVQ [Cyclin D1.199 (peptide 9019.0170)]" result_type=pIC50 measured_value=7.26
